Target: Cathepsin S (UniProt P25774)
Test: Cathepsin enzyme inhibition assay (fluorogenic peptide substrate Z-Val-Val-Arg-AMC), Cathepsin S
Type: biochemical, human and mouse
Conditions: enzyme 1 nM, substrate 20 μM, pH 6.5; read-out: CatS IC50
Procedure: Cathepsin Enzyme Inhibition Assay Enzyme activity is measured by observing the increase in fluorescence intensity caused by cleavage of a peptide substrate containing a fluorophore whose emission is quenched in the intact peptide. Assay buffer: 100 mM potassium phosphate pH 6.5, EDTA-Na 5 mM, Triton X-100 0.001%, DDT 5 mM. […] Enzyme is added to the substance dilutions in 96-well microtitre plates and the reaction is started with substrate. […] IC50 are calculated by standard methods. […]
Readout: IC50 (nM)

a. N#CC1(NC(=O)[C@@H]2C[C@@H](S(=O)(=O)c3ccc(OCC(F)(F)F)cc3Cl)CN2C(=O)Oc2ccc(Cl)cc2)CC1 [Example 252]
b. N#CC1(NC(=O)[C@@H]2C[C@@H](S(=O)(=O)c3ccc(OCC(F)(F)F)cc3Cl)CN2C(=O)C2CC2c2ccccc2)CC1 (stereo partly drawn) [Example 246]
c. N#CC1(NC(=O)[C@@H]2C[C@@H](S(=O)(=O)c3ccccc3Cl)CN2C(=O)c2n[nH]c3cc(Cl)ccc23)CC1 [Example 410]
Query string: Reorder: IC50, max to min. // format: requested-order list of labels
Result string: c, a, b

* * *

Biological target: Cathepsin S (UniProt P25774)
Assay: Cathepsin enzyme inhibition assay (fluorogenic peptide substrate Z-Val-Val-Arg-AMC), Cathepsin S
Assay type: biochemical, human and mouse
Conditions: enzyme 1 nM, substrate 20 μM, pH 6.5; read-out: CatS IC50
pIC50: −log10 of the molar value.
Readout: pIC50

1. Cc1cc(N2C[C@H](S(=O)(=O)c3ccc(OCC(F)(F)F)cc3Cl)C[C@H]2C(=O)NC2(C#N)CC2)n(C2CCOCC2)n1
2. N#CC1(NC(=O)[C@@H]2C[C@@H](S(=O)(=O)c3ccccc3C(F)(F)F)CN2C(=O)C2(c3ccc(Cl)cc3)CC2)CC1
Query string: Of the pair 1 and 2 , name the member with the lesser recorded pIC50. Write down the label of the entry you select.
Result string: 1

* * *

Target: Cat L (UniProt P07711)
Experiment: Cathepsin enzyme inhibition assay (fluorogenic peptide substrate Z-Val-Val-Arg-AMC), Cathepsin L
Type: biochemical, human and mouse
Conditions: enzyme 1 nM, substrate 20 μM, pH 6.5; read-out: CatL IC50
Readout: IC50 (µM)

A. Cc1cc(N2C[C@H](S(=O)(=O)c3ccccc3C(F)(F)F)C[C@H]2C(=O)NC2(C#N)CC2)n(-c2ccc(Cl)cc2)n1
B. CC1(C(=O)N2C[C@H](S(=O)(=O)c3ccc(OCC(F)(F)F)cc3Cl)C[C@H]2C(=O)NC2(C#N)CC2)COC1
Query string: Returns the identifier with the smallest measured IC50 among A and B . Indicate your choice by writing its label.
Result string: B

P. Cc1cc(N2C[C@H](S(=O)(=O)c3ccc(OCC(F)(F)F)cc3C(F)(F)F)C[C@H]2C(=O)NC2(C#N)CC2)n(C2CCC2)n1
Q. N#CC1(NC(=O)[C@H]2CC(S(=O)(=O)c3ccc(OCC(F)(F)F)cc3Cl)CN2)CC1 (stereo partly shown)
Query string: Which is greater in IC50, the first item P or the second item Q ? Your answer should be the label of the entry you select.
Result string: Q

* * *

Target: Cat L (UniProt P07711)
Experiment: Cathepsin enzyme inhibition assay (fluorogenic peptide substrate Z-Val-Val-Arg-AMC), Cathepsin L
Type: biochemical, human and mouse
Conditions: enzyme 1 nM, substrate 20 μM, pH 6.5; read-out: CatL IC50
Protocol: Cathepsin Enzyme Inhibition Assay Enzyme activity is measured by observing the increase in fluorescence intensity caused by cleavage of a peptide substrate containing a fluorophore whose emission is quenched in the intact peptide. […] Enzyme is added to the substance dilutions in 96-well microtitre plates and the reaction is started with substrate. Fluorescence emission is measured over 20 minutes, during which time a linear increase is observed in the absence of inhibitor. […]
pIC50: −log10 of the molar value.
Readout: pIC50

N#CC1(NC(=O)[C@@H]2C[C@@H](S(=O)(=O)c3ccc(N4CCNCC4)cc3Cl)CN2C(=O)C2(C(F)(F)F)CC2)CC1 ... 5.58

1. N#CC1(NC(=O)[C@@H]2C[C@@H](S(=O)(=O)c3ccc(-n4cccn4)cc3Cl)CN2)CC1
2. N#CC1(NC(=O)[C@@H]2C[C@@H](S(=O)(=O)c3ccc(Cl)cc3Cl)CN2C(=O)C2(c3ccccc3)CC2)CC1
Query string: // which entry reports the smaller pIC50, 1 or 2 ? Bench note: the answer is the label of the chosen record.
Result string: 1

* * *

Target: UniProt P07711
Test: Cathepsin enzyme inhibition assay (fluorogenic peptide substrate Z-Val-Val-Arg-AMC), Cathepsin L
Format: biochemical, human and mouse
Conditions: enzyme 1 nM, substrate 20 μM, pH 6.5; read-out: CatL IC50
pIC50: −log10 of the molar value.
Readout: pIC50

I. N#CC1(NC(=O)[C@@H]2C[C@@H](S(=O)(=O)c3ccc(OCC(F)(F)F)cc3Cl)CN2C(=O)C2(c3ccc(Cl)cc3)CCCCC2)CC1 [Example 314]
II. N#CC1(NC(=O)[C@@H]2C[C@@H](S(=O)(=O)c3ccccc3Cl)CN2C(=O)C2(c3ccccc3)CC2)CC1 [Example 216]
Query string: Which item exceeds the other in pIC50, I or II ? Which one? Tell me its label.
Result string: II

* * *

Molecular target: Cathepsin S (UniProt P25774)
Test: Cathepsin enzyme inhibition assay (fluorogenic peptide substrate Z-Val-Val-Arg-AMC), Cathepsin S
Format: biochemical, human and mouse
Details: enzyme 1 nM, substrate 20 μM, pH 6.5; read-out: CatS IC50
pIC50: −log10 of the molar value.
Readout: pIC50

Cc1cc(N2C[C@H](S(=O)(=O)c3ccc(N4CCN(C(C)(C)C)CC4)cc3Cl)C[C@H]2C(=O)NC2(C#N)CC2)n(CCc2ccccc2)n1 ... 9.05

P. COC(=O)c1ccc(C(=O)N2C[C@H](S(=O)(=O)c3ccccc3C(F)(F)F)C[C@H]2C(=O)NCC#N)cc1
Q. C[C@H](Oc1ccc(S(=O)(=O)[C@@H]2C[C@H](C(=O)NC3(C#N)CC3)N(C(=O)C3(C(F)(F)F)CC3)C2)c(Cl)c1)C(F)(F)F
Query string: Which is greater in pIC50, the first item P or the second item Q ? State the label of the item chosen.
Result string: P

* * *

Target: Cathepsin S (UniProt P25774)
Experiment: Cathepsin enzyme inhibition assay (fluorogenic peptide substrate Z-Val-Val-Arg-AMC), Cathepsin S
Assay type: biochemical, human and mouse
Details: enzyme 1 nM, substrate 20 μM, pH 6.5; read-out: CatS IC50
pIC50: −log10 of the molar value.
Readout: pIC50

Look over these answered cases.
N#CC1(NC(=O)[C@@H]2C[C@@H](S(=O)(=O)c3ccc(Cl)cc3Cl)CN2C(=O)C2(c3ccc(Cl)cc3)CC2)CC1 ... 10.00
CC(C)(C)OC(=O)N[C@H]1CC[C@H](CC(=O)N2C[C@H](S(=O)(=O)c3ccc(OCC(F)(F)F)cc3Cl)C[C@H]2C(=O)NC2(C#N)CC2)CC1 ... 9.31
Cc1cc(N2C[C@H](S(=O)(=O)c3ccccc3C(F)(F)F)C[C@H]2C(=O)NC2(C#N)CC2)n(C(C)C)n1 ... 8.63
CC(C)(C)OC(=O)N1C[C@H](S(=O)(=O)c2ccccc2Cl)C[C@H]1C(=O)NC1(C#N)CCC1 ... 6.12

A. N#CCNC(=O)[C@@H]1C[C@@H](S(=O)(=O)c2ccccc2)CN1C(c1ccccc1)C(F)(F)F (stereo partly drawn)
B. N#CC1(NC(=O)[C@@H]2C[C@@H](S(=O)(=O)c3ccc(OCC(F)(F)F)cc3Cl)CN2C(=O)C2(C#N)CC2)CC1
Query string: Which value of pIC50 is greater, the one for A or the one for B ? Refer to your chosen entry by its label in the reply.
Result string: B

* * *

Biological target: Cat L (UniProt P07711)
Test: Cathepsin enzyme inhibition assay (fluorogenic peptide substrate Z-Val-Val-Arg-AMC), Cathepsin L
Format: biochemical, human and mouse
Conditions: enzyme 1 nM, substrate 20 μM, pH 6.5; read-out: CatL IC50
Structures can show the parent of a compound that is named as a salt.
Readout: IC50 (µM)

// worked examples, IC50 included
N#CC1CCN2C[C@H](S(=O)(=O)c3ccc(F)cc3Cl)C[C@@]12C(=O)NC1(C#N)CC1 (some centres unmarked) ... 20
N#CC1(NC(=O)[C@@H]2C[C@@H](S(=O)(=O)c3ccc(N4CCC(C(F)(F)F)CC4)cc3Cl)CN2)CC1 ... 6.63
N#CC1(NC(=O)[C@@H]2C[C@@H](S(=O)(=O)c3ccc(N4CCN(C5CC5)CC4)cc3Cl)CN2C(=O)C2(c3ccc(Cl)nc3)CC2)CC1 ... 0.0503

I. N#CC1(NC(=O)[C@@H]2C[C@@H](S(=O)(=O)c3ccccc3Cl)CN2C(=O)OC2CCCC2)CC1
II. CN(C)c1ccc(S(=O)(=O)[C@@H]2C[C@@H](C(=O)NC3(C#N)CC3)N(C(=O)C3(C(F)(F)F)CC3)C2)c(Cl)c1
III. Cc1cc(Cl)ccc1S(=O)(=O)[C@H]1CN[C@H](C(=O)NC2(C#N)CC2)C1 [Example 50, Hydrochloride]
IV. COc1cc(C2(C(=O)N3C[C@H](S(=O)(=O)c4ccccc4Cl)C[C@H]3C(=O)NC3(C#N)CC3)CC2)c(Cl)cc1Cl
Query string: Put the entries in order of IC50, starting with the largest number. Thanks in advance for listing the labels in the requested order.
Result string: I, III, II, IV
(I: 15.7 µM, III: 8.77 µM, II: 4.13 µM, IV: 0.0525 µM)
